- System: Ditylenchus dipsaci
- test.protocol: proportion of mobile D. dipsaci (mixed stage) relative to DMSO control (fraction of DMSO control); higher = more viable, less nematicidal, active = 0.86 or less; extreme values may be limits of the assay
- condition.set: 60 µM; 5 days; temperature: 20 °C
The reply should name one outcome from active, inactive

compound=Clc1ccc(-c2nc(C3CCCCC3)no2)cc1 class=inactive
compound=COc1cccc(-c2noc(COc3ccccc3Cl)n2)c1 class=inactive
compound=Brc1ccc(-c2nnc(-c3cccs3)o2)o1 class=active
compound=O=C(c1ccccc1-c1nc(-c2ccccc2)no1)N1CCCCC1 class=inactive
compound=Cc1nc(CSc2nnc(-c3ccc(Cl)cc3)o2)cs1 class=inactive

Assay result, entry `COc1ccc(-c2nc(C3CCCCC3)no2)cc1` — outcome? inactive

What did the test return for `Cn1cc(C(=O)CSc2nnc(-c3cccc(Cl)c3)o2)c2ccccc21` ? inactive

Field: outcome | Entry: `O=C(CSc1nnc(-c2ccc(Br)cc2)o1)NC1CCCCC1` inactive

Which outcome did this test record for the compound O=C(CSc1nnc(-c2ccc(Cl)cc2)o1)NC1CC2CCC1C2 (stereo not given) ? inactive

GET /call?item= `COc1cccc(-c2noc(COc3cc(C)cc(C)c3)n2)c1` returns the recorded outcome of this test. inactive

Record lookup: outcome of this test for `COc1ccc(-c2noc(-c3ccccc3C)n2)cc1` ? inactive

Given `COc1ccc(C(=O)CSc2nnc(-c3ccccc3)o2)cc1` , state the outcome it received in this test. inactive

All figures here come from the supplement of paper PMC11219838.
